# Test system: Plasmodium falciparum
# assay_comment: Antiplasmodial activity against Plasmodium falciparum W2
# Format: functional, organism-based
Listed below: IC50 values for each entry.

{"molecule": "CC1=C(OCCCN2C(=O)C(=O)c3ccccc32)C(C)SC1=O (stereo not given)", "IC50": "> 20 µM"}
{"molecule": "CC1=C(OCCN2C(=O)C(=O)c3ccccc32)C(C)SC1=O (stereo not given)", "IC50": "> 20 µM"}
{"molecule": "CC1=C2OCCCCN3C(=O)C(O)(c4cc([N+](=O)[O-])ccc43)C2(C)SC1=O (stereo not given)", "IC50": "> 20 µM"}
{"molecule": "CC1=C(OCCCCCCN2C(=O)C(=O)c3ccccc32)C(C)SC1=O (stereo not given)", "IC50": "12.3 µM"}
{"molecule": "O=C1C(=O)N(CCCCBr)c2ccc(Cl)cc21", "IC50": "> 20 µM"}
{"molecule": "O=C1C(=O)N(CCCCBr)c2ccccc21", "IC50": "> 20 µM"}
{"molecule": "CC1=C(O)SC(C)C1=O (stereo not given)", "IC50": "> 20 µM"}
{"molecule": "CC1=C(OCCN2C(=O)C(=O)c3cc(I)ccc32)C(C)SC1=O (stereo not given)", "IC50": "> 20 µM"}
{"molecule": "CC1=C2OCCCCCN3C(=O)C(O)(c4cc(I)ccc43)C2(C)SC1=O (stereo not given)", "IC50": "> 20 µM"}
{"molecule": "CC1=C(OCCCCN2C(=O)C(=O)c3ccccc32)C(C)SC1=O (stereo not given)", "IC50": "> 20 µM"}
{"molecule": "CC1=C2OCCCCCN3C(=O)C(O)(c4cc(Br)ccc43)C2(C)SC1=O (stereo not given)", "IC50": "> 20 µM"}
{"molecule": "CC1=C2OCCCCCCN3C(=O)C(O)(c4cc(I)ccc43)C2(C)SC1=O (stereo not given)", "IC50": "6.92 µM"}
{"molecule": "O=C1C(=O)N(CCCCBr)c2ccc(Br)cc21", "IC50": "> 20 µM"}
{"molecule": "CC1=C(OCCN2C(=O)C(=O)c3cc(Cl)ccc32)C(C)SC1=O (stereo not given)", "IC50": "> 20 µM"}
{"molecule": "O=C1C(=O)N(CCCBr)c2ccccc21", "IC50": "> 20 µM"}
{"molecule": "CC1=C2OCCCCN3C(=O)C(O)(c4cc(F)ccc43)C2(C)SC1=O (stereo not given)", "IC50": "> 20 µM"}
{"molecule": "CC1=C2OCCCCN3C(=O)C(O)(c4cc(C)ccc43)C2(C)SC1=O (stereo not given)", "IC50": "> 20 µM"}
{"molecule": "CC1=C2OCCCCCCN3C(=O)C(O)(c4ccccc43)C2(C)SC1=O (stereo not given)", "IC50": "11.5 µM"}
{"molecule": "O=C1C(=O)N(CCBr)c2ccccc21", "IC50": "> 20 µM"}
{"molecule": "CC1=C2OCCCCN3C(=O)C(O)(c4ccccc43)C2(C)SC1=O (stereo not given)", "IC50": "> 20 µM"}
{"molecule": "C=C/C(C)=C/[C@@]1(C)SC(=O)C(C)=C1O", "IC50": "> 20 µM"}
{"molecule": "CC1=C(OCCN2C(=O)C(=O)c3cc(Br)ccc32)C(C)SC1=O (stereo not given)", "IC50": "17.4 µM"}
{"molecule": "CC1=C(OCCCCCN2C(=O)C(=O)c3ccccc32)C(C)SC1=O (stereo not given)", "IC50": "15.3 µM"}
{"molecule": "O=C1C(=O)N(CCCCCCBr)c2ccccc21", "IC50": "> 20 µM"}
{"molecule": "CC1=C(OCCN2C(=O)C(=O)c3cc(F)ccc32)C(C)SC1=O (stereo not given)", "IC50": "> 20 µM"}
